Data provenance is patent US11414384B2.

- TESTED ON: p300 HAT domain (residues 1287-1666) (Homo sapiens (Human), UniProt Q09472)
- Sequence (Q09472 1287-1666): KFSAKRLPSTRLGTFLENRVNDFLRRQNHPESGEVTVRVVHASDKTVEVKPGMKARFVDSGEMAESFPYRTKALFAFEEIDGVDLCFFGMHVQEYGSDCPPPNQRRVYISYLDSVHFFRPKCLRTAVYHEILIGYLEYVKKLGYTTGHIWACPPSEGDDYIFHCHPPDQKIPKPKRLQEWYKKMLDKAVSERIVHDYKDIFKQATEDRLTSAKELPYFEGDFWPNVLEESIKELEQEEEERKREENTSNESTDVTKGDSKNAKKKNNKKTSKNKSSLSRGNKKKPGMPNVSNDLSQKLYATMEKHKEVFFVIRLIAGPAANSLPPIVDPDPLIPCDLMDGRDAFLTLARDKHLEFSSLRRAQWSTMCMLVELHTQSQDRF
- MEASUREMENT PROTOCOL: p300 HAT SPA assay (scintillation proximity assay, acetylation of biotinylated H3(1-21) peptide)
- Assay type: biochemical
- TEST PARAMETERS: p300 HAT domain; average of at least 2 replicate titrations; read-out: P300 HAT SPA IC50
RESULT TYPE: pIC50
Bear in mind: pIC50 is minus log10 of a mol/L concentration; give just that figure.

IN: Identify the measured pIC50 of CCNC(=O)c1ccc2c(C(=O)C(NCC(C)c3ccc(C#N)cc3)c3ccccc3)c[nH]c2c1 (single isomer, unassigned) [75 Isomer 2] for p300 HAT domain (residues 1287-1666) (Homo sapiens (Human), UniProt Q09472).
OUT: 6.46

IN: Identify the measured pIC50 of O=C(O)c1ccc(CCNC(C(=O)c2c[nH]c3ccccc23)c2ccccc2)cc1 (single isomer, unassigned) [132 Isomer 1] for p300 HAT domain (residues 1287-1666) (Homo sapiens (Human), UniProt Q09472).
OUT: 5.74

IN: Identify the measured pIC50 of CN1CCN(c2ccc3c(C(=O)C(NCCc4ccc(F)cc4)c4ccccc4)c[nH]c3c2)CC1 (single isomer, unassigned) [123 Isomer 2] for p300 HAT domain (residues 1287-1666) (Homo sapiens (Human), UniProt Q09472).
OUT: 6.09

----------
RESULT TYPE: pIC50
Bear in mind: pIC50 is minus log10 of a mol/L concentration; give just that figure.

IN: Identify the measured pIC50 of Cc1nc(C(=O)C(NCCc2ccc(Cl)cc2)c2ccccc2)c2ccccn12 (single isomer, unassigned) [45 Isomer 1] for UniProt:Q09472.
OUT: 6.66

IN: Identify the measured pIC50 of CN(C)C(=O)CCc1ccc2c(C(=O)C(NCCc3ccc(F)cc3)c3ccccc3)c[nH]c2c1 (single isomer, unassigned) [49 Isomer 2] for UniProt:Q09472.
OUT: 7.26

IN: Identify the measured pIC50 of Cn1cc(-c2ccc3c(C(=O)C(NCCc4ccc(C(=O)O)cc4)c4ccccc4)c[nH]c3c2)cn1 (single isomer, unassigned) [138 Isomer 1] for UniProt:Q09472.
OUT: 7.52

IN: Identify the measured pIC50 of Cn1cc(-c2ccc3c(C(=O)C(NCCc4ccc(F)cc4)c4ccccc4)c[nH]c3c2)cn1 (single isomer, unassigned) [78 Isomer 2] for UniProt:Q09472.
OUT: 7.96

IN: Identify the measured pIC50 of NS(=O)(=O)c1ccc(CCNC(C(=O)c2c[nH]c3ccc(Cl)cc23)c2ccccc2)cc1 (single isomer, unassigned) [14 Isomer 1] for UniProt:Q09472.
OUT: 5.02

IN: Identify the measured pIC50 of NS(=O)(=O)c1ccc(CCNC(C(=O)c2c[nH]c3cnccc23)c2ccccc2)cc1 (single isomer, unassigned) [32 Isomer 1] for UniProt:Q09472.
OUT: 6.99

IN: Identify the measured pIC50 of CNC(=O)c1ccc(CCNC(C(=O)c2c[nH]c3ccccc23)c2ccccc2)cc1 (single isomer, unassigned) [134 Isomer 2] for UniProt:Q09472.
OUT: 6.82

IN: Identify the measured pIC50 of CNC(=O)c1cccc2c(C(=O)C(NCCc3ccc(Cl)cc3Cl)c3ccccc3)c[nH]c12 (single isomer, unassigned) [147 Isomer 2] for UniProt:Q09472.
OUT: 6.47

IN: Identify the measured pIC50 of O=C(c1c[nH]c2cc(OCc3ccccc3)ccc12)C(NCCc1ccc(F)cc1)c1ccccc1 (single isomer, unassigned) [61 Isomer 2] for UniProt:Q09472.
OUT: 7.30

IN: Identify the measured pIC50 of O=C(c1c[nH]c2cc(-c3cccnc3)ccc12)C(NCCc1ccc(F)cc1)c1ccccc1 (single isomer, unassigned) [81 Isomer 2] for UniProt:Q09472.
OUT: 7.84

IN: Identify the measured pIC50 of CN(C)C(=O)c1ccc2c(C(=O)C(NCCc3ccc(Cl)cc3Cl)c3ccccc3)c[nH]c2c1 (single isomer, unassigned) [152 Isomer 2] for UniProt:Q09472.
OUT: 7.54

IN: Identify the measured pIC50 of O=C(c1c[nH]c2ccccc12)C(NCCc1ccccn1)c1ccccc1 (single isomer, unassigned) [9 Isomer 1] for UniProt:Q09472.
OUT: 4.59

IN: Identify the measured pIC50 of CNC(=O)Cc1ccc2c(C(=O)C(NCCc3ccc(C#N)cc3)c3ccccc3)c[nH]c2c1 (single isomer, unassigned) [62 Isomer 2] for UniProt:Q09472.
OUT: 7.29

IN: Identify the measured pIC50 of N#Cc1ccc(CCNC(C(=O)c2c[nH]c3cc(C(=O)O)ccc23)c2ccccc2)cc1 (single isomer, unassigned) [155 Isomer 2] for UniProt:Q09472.
OUT: 6.55

IN: Identify the measured pIC50 of N#Cc1ccc(CCNC(C(=O)c2c[nH]c3cc(C(=O)NCCN4CCCC4=O)ccc23)c2ccccc2)cc1 (single isomer, unassigned) [164 Isomer 2] for UniProt:Q09472.
OUT: 8.22

IN: Identify the measured pIC50 of NS(=O)(=O)c1ccc(CCNC(C(=O)c2c[nH]c3ccc(Cl)cc23)c2ccccc2)cc1 (single isomer, unassigned) [14 Isomer 2] for UniProt:Q09472.
OUT: 5.73

IN: Identify the measured pIC50 of NS(=O)(=O)c1ccc(CCNC(C(=O)c2c[nH]c3cc(Cl)ccc23)c2ccccc2)cc1 (single isomer, unassigned) [13 Isomer 1] for UniProt:Q09472.
OUT: 6.33

IN: Identify the measured pIC50 of NC(=O)c1ccc(CCNC(C(=O)c2c[nH]c3ccccc23)c2ccccc2)cc1 (single isomer, unassigned) [133 Isomer 2] for UniProt:Q09472.
OUT: 7.00

IN: Identify the measured pIC50 of CN(C)C(=O)c1cccc2c(C(=O)C(NCCc3ccc(Cl)cc3Cl)c3ccccc3)c[nH]c12 (single isomer, unassigned) [148 Isomer 2] for UniProt:Q09472.
OUT: 6.45

IN: Identify the measured pIC50 of O=C(c1c[nH]c2cc(-n3ccnc3)ccc12)C(NCCc1ccc(F)cc1)c1ccccc1 (single isomer, unassigned) [117 Isomer 1] for UniProt:Q09472.
OUT: 7.85

IN: Identify the measured pIC50 of O=C(c1c[nH]c2ccccc12)C(NCCc1ccncc1)c1ccccc1 (single isomer, unassigned) [11 Isomer 1] for UniProt:Q09472.
OUT: 6.69

IN: Identify the measured pIC50 of Cc1nc(C(=O)C(NCCc2ccc(Cl)cc2)c2ccccc2)c2ccccn12 (single isomer, unassigned) [45 Isomer 2] for UniProt:Q09472.
OUT: 5.87

IN: Identify the measured pIC50 of N#Cc1ccc(CCNC(C(=O)c2c[nH]c3cc(C(=O)O)ccc23)c2ccccc2)cc1 (single isomer, unassigned) [155 Isomer 1] for UniProt:Q09472.
OUT: 7.11

IN: Identify the measured pIC50 of O=C(c1cnc2ccccn12)C(NCCc1ccc(Cl)cc1)c1ccccc1 (single isomer, unassigned) [46 Isomer 1] for UniProt:Q09472.
OUT: 4.88
